Assay: amyloid nucleation score (Sup35N fusion, yeast selection) (log enrichment); library NNK3; higher = more nucleation; inactive = no reads after selection;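 further: zero at mode of non-aggregating sequences after 7 days selection at 30°C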
assay-readout: amyloid nucleation score

Example sequences with recorded amyloid nucleation score:
FYSYRTCDGRIAGIIAGNRA ... inactive
FRRLSFMVVFGERKGVVSLG ... inactive
SFGFALLGVVMRITAVRYPY ... inactive
FMHPADVEHGTREYLNVTGG ... inactive
KTFMSCFGMGKEEGLSHFPR ... inactive
EMLFPSRICLCIHDVILPRV ... inactive

Item: `MVCIDPFNENLVRVRMTVIG` | amyloid nucleation score: inactive

Item: `SYNILHDVSQLGTRQPPLE` | amyloid nucleation score: inactive

Item: `QTHMTFYVCMFRGTCNGNMC` | amyloid nucleation score: 2.1

Item: `SSFAGVFNFRDGTQSQILYV` | amyloid nucleation score: inactive

Item: `ILRFMYAVHDISFFYLIVCF` | amyloid nucleation score: inactive

====

So I've got a bunch of substances here, and I need their amyloid nucleation score values.
Experiment: amyloid nucleation score (Sup35N fusion, yeast selection) (log enrichment); library NNK2; higher = more nucleation; inactive = no reads after selection

Item: `GQAHRFGTHLRISAGVVPPV` | amyloid nucleation score: 0.01

Item: `SHTDYHRFAWMF` | amyloid nucleation score: -1.74

Item: `SYAESLPLSDYNAVVRFPWT` | amyloid nucleation score: -0.304

Item: `IRYTFSKLRSDCFMRCARSW` | amyloid nucleation score: 0.898

Item: `TIKTALMYIMRYSFRSYRDF` | amyloid nucleation score: -1.02

Item: `RSVSTTHRCRTTLKTSNYCL` | amyloid nucleation score: 0.778

Item: `QLVGSLGGAQGTAGRYRYTG` | amyloid nucleation score: 0.658

Item: `WPYRMMR` | amyloid nucleation score: 0.554

Item: `IPMPSCVQYYSVDYRWASLL` | amyloid nucleation score: -1.27

Item: `FDQTFEDWWPAYNHSRFNQH` | amyloid nucleation score: 0.352

Item: `VSWTPWESIFSGVMV` | amyloid nucleation score: -0.568

Item: `WLNYLGFISFRICH` | amyloid nucleation score: -1.66

Item: `WTGHMPMSLVHLMIGWHGHY` | amyloid nucleation score: 0.637

Item: `SIVNFWNMIVE` | amyloid nucleation score: 3.32

Item: `TCCQDYLLIWYCMDSIRNVR` | amyloid nucleation score: 9.61

Item: `GISVLRQTVFDLSIFIPHTS` | amyloid nucleation score: 4.42

====

Test: amyloid nucleation score (Sup35N fusion, yeast selection) (log enrichment); library NNK3; higher = more nucleation; inactive = no reads after selection
assay-readout: amyloid nucleation score

Example sequences with recorded amyloid nucleation score:
MAINYTFFPPRLVT ... inactive
RLYQFCFDENSIQLFIYP ... 2.35
INYIIVSGSAGIRMTGK ... 2.52
FLFFTEAGYM ... inactive

Item: `LFLLFFSAHGQYIRCAIIVR` | amyloid nucleation score: inactive

Item: `PVYCDCSYVREGVTITITIH` | amyloid nucleation score: inactive

Item: `SINRTKQCLEVNFHLDDCKA` | amyloid nucleation score: inactive

Item: `WSYTAKGVW` | amyloid nucleation score: inactive

Item: `MKLCNVRGIKVFAFCSGSRR` | amyloid nucleation score: 1.3
